Reference source for all entries: patent US10851098B2

target: human αVβ3 (Homo sapiens, UniProt P05106+P06756); test: human αVβ3 HTRF binding assay; settings: printed as αVβ4, read-out: Human αVβ4 IC50
Sequence (P06756 31-992 limits assumed): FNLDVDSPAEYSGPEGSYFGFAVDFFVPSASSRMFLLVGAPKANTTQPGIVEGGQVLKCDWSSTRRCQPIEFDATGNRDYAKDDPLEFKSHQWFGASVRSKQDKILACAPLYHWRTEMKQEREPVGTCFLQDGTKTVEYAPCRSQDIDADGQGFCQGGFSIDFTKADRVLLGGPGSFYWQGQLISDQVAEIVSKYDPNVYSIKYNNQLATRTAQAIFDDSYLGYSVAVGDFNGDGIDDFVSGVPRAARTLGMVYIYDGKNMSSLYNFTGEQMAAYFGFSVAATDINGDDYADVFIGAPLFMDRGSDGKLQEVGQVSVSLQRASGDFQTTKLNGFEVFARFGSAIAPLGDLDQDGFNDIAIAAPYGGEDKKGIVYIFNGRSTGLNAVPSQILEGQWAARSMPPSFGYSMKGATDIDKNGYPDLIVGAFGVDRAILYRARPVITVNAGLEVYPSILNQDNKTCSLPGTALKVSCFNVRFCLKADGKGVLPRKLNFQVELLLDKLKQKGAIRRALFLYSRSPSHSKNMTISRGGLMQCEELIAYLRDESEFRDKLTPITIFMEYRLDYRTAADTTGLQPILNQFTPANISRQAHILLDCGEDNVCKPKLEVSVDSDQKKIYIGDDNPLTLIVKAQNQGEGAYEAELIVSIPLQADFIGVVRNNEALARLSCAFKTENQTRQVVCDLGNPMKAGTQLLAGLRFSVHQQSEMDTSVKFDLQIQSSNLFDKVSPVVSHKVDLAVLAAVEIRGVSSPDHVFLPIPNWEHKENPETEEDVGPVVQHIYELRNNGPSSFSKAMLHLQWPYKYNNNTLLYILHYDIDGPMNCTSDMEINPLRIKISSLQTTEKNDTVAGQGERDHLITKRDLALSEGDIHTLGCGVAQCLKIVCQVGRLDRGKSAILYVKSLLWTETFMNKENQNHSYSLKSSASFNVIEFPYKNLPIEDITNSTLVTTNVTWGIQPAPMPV
Sequence (P05106 27-718 limits assumed): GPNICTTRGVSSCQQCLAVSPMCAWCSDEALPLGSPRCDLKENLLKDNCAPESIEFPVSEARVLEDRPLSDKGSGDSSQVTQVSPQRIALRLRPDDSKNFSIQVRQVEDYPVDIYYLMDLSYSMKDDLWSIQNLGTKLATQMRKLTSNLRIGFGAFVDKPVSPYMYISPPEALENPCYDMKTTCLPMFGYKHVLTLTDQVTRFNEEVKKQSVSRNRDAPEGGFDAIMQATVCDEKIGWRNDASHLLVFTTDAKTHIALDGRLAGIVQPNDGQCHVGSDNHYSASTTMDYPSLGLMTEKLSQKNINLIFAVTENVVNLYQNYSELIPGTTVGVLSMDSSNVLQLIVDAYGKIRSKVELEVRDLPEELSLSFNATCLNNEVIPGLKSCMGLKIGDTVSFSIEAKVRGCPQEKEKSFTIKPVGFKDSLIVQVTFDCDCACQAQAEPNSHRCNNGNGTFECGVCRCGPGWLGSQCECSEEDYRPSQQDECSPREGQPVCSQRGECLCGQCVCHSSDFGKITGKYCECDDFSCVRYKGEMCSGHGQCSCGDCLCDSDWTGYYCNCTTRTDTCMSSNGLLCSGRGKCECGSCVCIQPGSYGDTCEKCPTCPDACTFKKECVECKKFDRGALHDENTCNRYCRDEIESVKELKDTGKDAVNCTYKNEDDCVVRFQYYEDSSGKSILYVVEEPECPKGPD
readoutLabel: IC50 (nM)
Numbers only; they are read as nM.

Q: Give IC50 for `Cc1cc(C)c(S(=O)(=O)N[C@H](CNC(=O)c2cn(CCc3ccc4c(n3)NCCC4)cn2)C(=O)O)c(C)c1` tested on human αVβ3 (Homo sapiens, UniProt P05106+P06756).
A: 4.4

====

# IC50 annotations
target: human αVβ6 (Homo sapiens, UniProt P06756+P18564); experiment: human αVβ6 HTRF binding assay
Sequence (P18564 22-707 limits assumed, one chain of several): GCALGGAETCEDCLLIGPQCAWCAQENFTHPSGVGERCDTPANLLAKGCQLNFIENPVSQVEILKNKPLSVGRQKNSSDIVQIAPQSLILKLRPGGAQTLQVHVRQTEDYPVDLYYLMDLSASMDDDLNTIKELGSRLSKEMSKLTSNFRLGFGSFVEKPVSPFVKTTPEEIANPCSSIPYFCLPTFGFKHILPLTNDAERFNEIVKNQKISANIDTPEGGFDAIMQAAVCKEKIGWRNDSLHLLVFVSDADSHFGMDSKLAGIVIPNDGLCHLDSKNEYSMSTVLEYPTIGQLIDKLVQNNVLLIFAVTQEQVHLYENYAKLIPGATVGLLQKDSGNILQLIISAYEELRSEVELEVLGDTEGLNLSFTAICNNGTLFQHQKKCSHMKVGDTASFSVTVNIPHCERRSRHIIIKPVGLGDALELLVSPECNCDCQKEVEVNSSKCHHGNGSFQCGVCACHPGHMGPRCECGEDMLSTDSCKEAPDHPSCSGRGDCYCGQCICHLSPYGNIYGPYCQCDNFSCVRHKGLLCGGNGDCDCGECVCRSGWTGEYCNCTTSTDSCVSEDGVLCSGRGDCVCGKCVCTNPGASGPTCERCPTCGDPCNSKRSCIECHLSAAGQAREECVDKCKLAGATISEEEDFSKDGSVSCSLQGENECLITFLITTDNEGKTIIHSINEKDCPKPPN
Express your answer in nM, writing the number without its unit.

COc1ccc([C@H](CC(=O)O)NC(=O)c2cn(CCc3ccc4c(n3)NCCC4)nc2CO)cc1F
349
COc1ccc([C@H](CC(=O)O)NC(=O)c2cnn(CCCc3ccc4c(n3)NCCC4)c2)cc1F
125
O=C(O)CC(NC(=O)c1cn(CCc2ccc3c(n2)NCCC3)nc1-c1ccccc1)c1cc(Cl)cc(Cl)c1 (stereo not drawn)
244
C=CCCOC(=O)N[C@@H](CNC(=O)c1cnn(CCc2ccc3c(n2)NCCC3)c1)C(=O)O
1.4

Q: GET IC50 where system = human αVβ6 (Homo sapiens, UniProt P06756+P18564) and item = `O=C(NC[C@H](NS(=O)(=O)Cc1cc(C(F)(F)F)cc(C(F)(F)F)c1)C(=O)O)c1cnn(CCc2ccc3c(n2)NCCC3)c1`
A: 16

Q: Write IC50 of `O=C(O)CCN(Cc1cnn(CCc2ccc3c(n2)NCCC3)c1)C(=O)OCc1ccccc1` ; system used: human αVβ6 (Homo sapiens, UniProt P06756+P18564)
A: 249

Q: Report measured IC50 on human αVβ6 (Homo sapiens, UniProt P06756+P18564); entry: O=C(O)CC(Cc1ccccc1)NC(=O)c1cnn(CCc2ccc3c(n2)NCCC3)c1 (stereo not drawn)
A: 1420

Q: Give IC50; test system human αVβ6 (Homo sapiens, UniProt P06756+P18564); molecule `Cc1cc(C)c(S(=O)(=O)N[C@@H](CNC(=O)c2ccnn2CCc2ccc3c(n2)NCCC3)C(=O)O)c(C)c1`
A: 34

Q: Report IC50 under test system human αVβ6 (Homo sapiens, UniProt P06756+P18564) for Cc1c(C(=O)NC(CC(=O)O)c2cc(Cl)cc(Cl)c2)cnn1CCc1ccc2c(n1)NCCC2 (stereo not drawn) .
A: 23

Q: State, for human αVβ6 (Homo sapiens, UniProt P06756+P18564), measured IC50 of the molecule listed here: `Cc1cc(C)c(S(=O)(=O)N[C@@H](CNC(=O)c2cn(CCc3ccc4c(n3)NCCC4)nn2)C(=O)O)c(C)c1`
A: 0.8

Q: Give human αVβ6 (Homo sapiens, UniProt P06756+P18564) IC50 for the following molecule: O=C(O)CC(NC(=O)c1cnn(CCc2ccc3c(n2)NCCC3)c1CO)c1cccc(Cl)c1 (stereo not drawn)
A: 22

Q: Identify measured IC50 obtained with human αVβ6 (Homo sapiens, UniProt P06756+P18564) for `COc1ccc([C@H](CC(=O)O)NC(=O)c2cnn(CCCc3ccc4c(n3)NCCC4)c2)cn1` .
A: 339
